Reported Serum τ1/2 (h) rat by item:
Assay: Serum stability in rat serum at 37° C.
Type: in vitro ADME
Details: mono-exponential fit
Kindly answer with a numeric value in h, unit omitted.

Some molecules with recorded Serum τ1/2 (h) rat:
Molecule	Measured Quantity	Value Reported
C124A/F180A: RLuc mutant C124A/F180A (protein) MASKVYDPEQRKRMITGPQWWARCKQMNVLDSFINYYDSEKHAENAVIFLHGNAASSYLWRHVVPHIEPVARCIIPDLIGMGKSGKSGNGSYRLLDHYKYLTAWFELLNLPKKIIFVGHDWGAALAFHYSYEHQDKIKAIVHAESVVDVIESWDEWPDIEEDIALIKSEEGEKMVLENNAFVETMLPSKIMRKLEPEEFAAYLEPFKEKGEVRRPTLSWPREIPLVKGGKPDVVQIVRNYNAYLRASDDLPKMFIESDPGFFSNAIVEGAKKFPNTEFVKVKGLHFSQEDAPDEMGKYIKSFVERVLKNEQ	Serum τ1/2 (h) rat	1.6
C124A/L203R: RLuc mutant C124A/L203R (protein) MASKVYDPEQRKRMITGPQWWARCKQMNVLDSFINYYDSEKHAENAVIFLHGNAASSYLWRHVVPHIEPVARCIIPDLIGMGKSGKSGNGSYRLLDHYKYLTAWFELLNLPKKIIFVGHDWGAALAFHYSYEHQDKIKAIVHAESVVDVIESWDEWPDIEEDIALIKSEEGEKMVLENNFFVETMLPSKIMRKLEPEEFAAYREPFKEKGEVRRPTLSWPREIPLVKGGKPDVVQIVRNYNAYLRASDDLPKMFIESDPGFFSNAIVEGAKKFPNTEFVKVKGLHFSQEDAPDEMGKYIKSFVERVLKNEQ	Serum τ1/2 (h) rat	2.2
C124A/K136R: RLuc mutant C124A/K136R (protein) MASKVYDPEQRKRMITGPQWWARCKQMNVLDSFINYYDSEKHAENAVIFLHGNAASSYLWRHVVPHIEPVARCIIPDLIGMGKSGKSGNGSYRLLDHYKYLTAWFELLNLPKKIIFVGHDWGAALAFHYSYEHQDRIKAIVHAESVVDVIESWDEWPDIEEDIALIKSEEGEKMVLENNFFVETMLPSKIMRKLEPEEFAAYLEPFKEKGEVRRPTLSWPREIPLVKGGKPDVVQIVRNYNAYLRASDDLPKMFIESDPGFFSNAIVEGAKKFPNTEFVKVKGLHFSQEDAPDEMGKYIKSFVERVLKNEQ	Serum τ1/2 (h) rat	11

# input Please report the measured Serum τ1/2 (h) rat for C124A/E195S/P196D: RLuc mutant C124A/E195S/P196D (protein) MASKVYDPEQRKRMITGPQWWARCKQMNVLDSFINYYDSEKHAENAVIFLHGNAASSYLWRHVVPHIEPVARCIIPDLIGMGKSGKSGNGSYRLLDHYKYLTAWFELLNLPKKIIFVGHDWGAALAFHYSYEHQDKIKAIVHAESVVDVIESWDEWPDIEEDIALIKSEEGEKMVLENNFFVETMLPSKIMRKLSDEEFAAYLEPFKEKGEVRRPTLSWPREIPLVKGGKPDVVQIVRNYNAYLRASDDLPKMFIESDPGFFSNAIVEGAKKFPNTEFVKVKGLHFSQEDAPDEMGKYIKSFVERVLKNEQ
# output 0.7

# input Please report the measured Serum τ1/2 (h) rat for C124A/Q235A: RLuc mutant C124A/Q235A (protein) MASKVYDPEQRKRMITGPQWWARCKQMNVLDSFINYYDSEKHAENAVIFLHGNAASSYLWRHVVPHIEPVARCIIPDLIGMGKSGKSGNGSYRLLDHYKYLTAWFELLNLPKKIIFVGHDWGAALAFHYSYEHQDKIKAIVHAESVVDVIESWDEWPDIEEDIALIKSEEGEKMVLENNFFVETMLPSKIMRKLEPEEFAAYLEPFKEKGEVRRPTLSWPREIPLVKGGKPDVVAIVRNYNAYLRASDDLPKMFIESDPGFFSNAIVEGAKKFPNTEFVKVKGLHFSQEDAPDEMGKYIKSFVERVLKNEQ
# output 3.6

# input Please report the measured Serum τ1/2 (h) rat for C124A/S287L: RLuc mutant C124A/S287L (protein) MASKVYDPEQRKRMITGPQWWARCKQMNVLDSFINYYDSEKHAENAVIFLHGNAASSYLWRHVVPHIEPVARCIIPDLIGMGKSGKSGNGSYRLLDHYKYLTAWFELLNLPKKIIFVGHDWGAALAFHYSYEHQDKIKAIVHAESVVDVIESWDEWPDIEEDIALIKSEEGEKMVLENNFFVETMLPSKIMRKLEPEEFAAYLEPFKEKGEVRRPTLSWPREIPLVKGGKPDVVQIVRNYNAYLRASDDLPKMFIESDPGFFSNAIVEGAKKFPNTEFVKVKGLHFLQEDAPDEMGKYIKSFVERVLKNEQ
# output 20

# input Please report the measured Serum τ1/2 (h) rat for A55T/C124A: RLuc mutant A55T/C124A (protein) MASKVYDPEQRKRMITGPQWWARCKQMNVLDSFINYYDSEKHAENAVIFLHGNATSSYLWRHVVPHIEPVARCIIPDLIGMGKSGKSGNGSYRLLDHYKYLTAWFELLNLPKKIIFVGHDWGAALAFHYSYEHQDKIKAIVHAESVVDVIESWDEWPDIEEDIALIKSEEGEKMVLENNFFVETMLPSKIMRKLEPEEFAAYLEPFKEKGEVRRPTLSWPREIPLVKGGKPDVVQIVRNYNAYLRASDDLPKMFIESDPGFFSNAIVEGAKKFPNTEFVKVKGLHFSQEDAPDEMGKYIKSFVERVLKNEQ
# output 29
